test: Cmax in BALB/c mouse at 50 mg/kg, po
Type: ADME, organism-based
Set-up: dose 50 mg/kg, route oral
experimental_setup: in vivo
recorded_endpoint: Cmax (µM)
Use µM as the unit, but write only the number.

[
  {
    "molecule": "Cn1cncc1CN1CC(N(CCn2cccc2)S(=O)(=O)c2ccccn2)Cc2cc(C#N)ccc21 (stereo not given)",
    "unit_descriptor": "µM",
    "Cmax": 13.5
  }
]

State, in one line, measured Cmax of COC(=O)N1CCC(CN(C2Cc3cc(C#N)ccc3N(Cc3cncn3C)C2)S(=O)(=O)c2ccccn2)CC1 (stereo not given)
4.2

State, in one line, measured Cmax of Cn1cnc(S(=O)(=O)N(CC(=O)NC(C)(C)C)C2Cc3cc(-c4ccccc4)ccc3N(Cc3cncn3C)C2)c1 (stereo not given)
5

State, in one line, measured Cmax of Cn1cnc(S(=O)(=O)N(Cc2ccc(C(F)(F)F)o2)C2Cc3cc(C#N)ccc3N(Cc3cncn3C)C2)c1 (stereo not given)
3.9

State, in one line, measured Cmax of CC(C)COC(=O)N1CCC(CN(C2Cc3cc(C#N)ccc3N(Cc3cncn3C)C2)S(=O)(=O)c2ccccn2)CC1 (stereo not given)
5.4
